System: SK-OV-3
Test: NCI tumour cell line growth inhibition, 48 h
Activity calls are given as the source filed them. No stated cut-off is given here; in the data, active = GI50 up to about 1.1 µM and inactive = higher.
Measured Property: GI50

Worked cases, answers included:
{"Compound": "COc1cc(CNc2nc3ccc(C(F)(F)F)cc3nc2-c2ccccc2)cc(OC)c1OC", "Value Measured": "7.18 µM (inactive)"}
{"Compound": "COC(=O)c1c2c(c(-c3ccccc3)c3c1-c1nc(Cl)ccc1CC3)CCc1ccc(Cl)nc1-2", "Value Measured": "> 100 µM (inactive)"}
{"Compound": "C=C(c1ccccc1)[C@@]1(O)CC[C@@H]1N(CC#N)Cc1ccccc1", "Value Measured": "98.9 µM (inactive)"}
{"Compound": "CSC1(CC(=O)N2CCCCC2)C(=O)Nc2ccccc21 (stereo not given)", "Value Measured": "> 100 µM (inactive)"}

Given the compound O=C(/C=C/c1ccccc1)Oc1ccc(C(=O)/C=C/c2ccccc2)cc1 , what is its reported GI50?
21.4 µM (inactive)

---

Tested on: K562
Assay: NCI tumour cell line growth inhibition, 48 h
Calls of active or inactive are those of the source. Cut-off read from the data, not from the text of the source: active = GI50 up to about 1.1 µM and inactive = higher.
Tick one outcome: active, inactive

Identify the outcome logged in this assay for the compound shown: COC(=O)C1CCC(=O)N1CN(C(C)=O)c1cccc(O)c1 (stereo not given)
inactive

Tell me the assay call for CN(N=O)c1nc2c(C(N)=O)ncn2s1 please.
inactive

What call does the record list for COc1ccc([C@]23CCN4COC[C@@H]([C@H]42)C2(CC3)OCC(C)(C)CO2)cc1OC ?
inactive

How did this test come out for O=C1c2cn[nH]c2N=C(Nc2ccccc2)C1/N=C/c1ccc([N+](=O)[O-])cc1 (stereo not given) ?
inactive

Identify the outcome logged in this assay for the compound shown: CCOC(=O)CC1C(O)C(=O)N(C)C1c1ccccc1 (stereo not given)
inactive

So what was the verdict on Nc1cccc2cc(S(=O)(=O)Nc3ccc(C(=O)O)cc3)ccc12 in this test?
inactive

Outcome logged for NNC(=O)CS(=O)(=O)Nc1ncccn1 in this assay:
inactive

Dear all, I need the recorded test outcome for OC1c2ccccc2CCC1C(O)(C(F)(F)F)C(F)(F)F (stereo not given) , thank you.
inactive

Given O=C1/C(=N\n2c(S)nnc2-c2ccncc2)c2cc(Cl)ccc2N1CN1CCCCC1 , state the outcome it received in this test.
inactive

---

Tested on: A549
Assay: NCI tumour cell line growth inhibition, 48 h
Activity calls are given as the source filed them. Cut-off read from the data, not from the text of the source: active = GI50 up to about 1.1 µM and inactive = higher.
Measured Property: GI50

{"Compound": "COc1cc(CNc2nc3ccc(C(F)(F)F)cc3nc2-c2ccccc2)cc(OC)c1OC", "GI50": "20 µM (inactive)"}
{"Compound": "COC(=O)Oc1nn(C(=O)OC)c(=O)c2ccccc12", "GI50": "> 100 µM (inactive)"}
{"Compound": "O=C(Cn1c(=O)ccn(C2OC(CO)C(O)C2F)c1=O)c1ccc(F)cc1 (stereo not given)", "GI50": "> 100 µM (inactive)"}
{"Compound": "NC(Cc1ccccc1)C(=O)OCN1C(=O)C2C3C=CC(C2C1=O)C1C2C(=O)N(COC(=O)C(N)Cc4ccccc4)C(=O)C2C31 (stereo not given)", "GI50": "25.9 µM (inactive)"}
{"Compound": "CC(=O)OCC1OC(N2C(S)=C(C#N)C(c3ccco3)C(C(C)=O)=C2c2ccccc2)C(OC(C)=O)C(OC(C)=O)C1OC(C)=O (stereo not given)", "GI50": "49.4 µM (inactive)"}

I need GI50 for every entry listed below, if you could help.
1. CC(=O)O[C@H]1CCC2[C@@H]3CCC4Nc5c(cnn5-c5ccccc5)C[C@]4(C)C3CC[C@@]21C (stereo not given in full)
2. O=C1CCCC1C(O)(C(F)(F)Cl)C(F)(F)Cl (stereo not given)
3. Cc1cc2[nH]c3c(C#N)c(-c4ccccc4)c(/C=N/c4ccc(F)cc4)c(=O)n3c2cc1C
4. NC1=NN(c2ccccc2)C(=O)C1C(=O)C(=O)Nc1cccc(C(F)(F)F)c1 (stereo not given)
5. COc1cc(C(c2ccc3c(c2)OCO3)N2C(=O)CCC2C(=O)O)cc(OC)c1OC (stereo not given)

1. 17.5 µM (inactive)
2. > 10 µM (inactive)
3. 49 µM (inactive)
4. > 100 µM (inactive)
5. > 100 µM (inactive)

---

Test system: NCI-H23
Test: NCI tumour cell line growth inhibition, 48 h
Activity calls are given as the source filed them. No stated cut-off is given here; in the data, active = GI50 up to about 1.1 µM and inactive = higher.
Kindly state GI50 for each of the entries shown.

Consider the reported GI50 for these molecules:
{"Molecule": "CC1=CCS(=O)(=O)C1C(O)C1=C(C)CCCC1(C)C (stereo not given)", "GI50": "> 100 µM (inactive)"}
{"Molecule": "CCOC(=O)CC1C(O)C(=O)N(C)C1c1ccccc1 (stereo not given)", "GI50": "> 100 µM (inactive)"}
{"Molecule": "C=CN1C(=O)OC[C@@H]1c1ccccc1", "GI50": "> 100 µM (inactive)"}
{"Molecule": "O=C(O)C(SC(=S)c1ccc(C(=S)SC(C(=O)O)c2ccccc2)cc1)c1ccccc1 (stereo not given)", "GI50": "> 100 µM (inactive)"}
{"Molecule": "Clc1ccc(/C=C/c2nc(-c3ccccc3)cn3c2nc2ccccc23)cc1Cl", "GI50": "31.2 µM (inactive)"}
{"Molecule": "O=S(=O)(c1ccc(/N=C2\\NC(c3ccc(O)cc3)(c3ccccc3O)c3ccccc32)cc1)c1ccc(/N=C2/NC(c3ccc(O)cc3)(c3ccccc3O)c3ccccc32)cc1 (stereo not given)", "GI50": "2.62 µM (inactive)"}

Batch: GI50 for all items listed.
1. CC1CCN(C(C)C)P(=S)(Cc2ccccc2)O1 (stereo not given)
2. O=c1c2c3c(sc2nc2n1N=CN(c1ccc(F)cc1)C2)CCCC3
3. CC1(C)C2CC1C(/C=N\OCC(=O)O)=CC2=O (stereo not given)

1: 92.9 µM (inactive); 2: > 100 µM (inactive); 3: > 100 µM (inactive)

For each of the molecules below, note its GI50.
1. N#Cc1[nH]c(=O)n(-c2cccc3ccccc23)c1N
2. Cc1ccc(-c2n[nH]c(=O)n2N)cc1
3. COc1ccc(/N=C2\C(=N/c3ccc(OC)cc3)N(S(=O)(=O)c3ccccc3)C(=S)N2c2ccc(OC)cc2)cc1
4. CCn1c(-c2ccc(OC(C)=O)cc2)c(C)c2cc(OC(C)=O)ccc21
5. O=C1[C@H]2ON(c3ccccc3)C(c3ccccc3F)[C@H]2C(=O)N1c1ccc(Cc2ccc(N3C(=O)[C@@H]4ON(c5ccccc5)C(c5ccccc5F)[C@@H]4C3=O)cc2)cc1 (stereo not given in full)
6. Cc1cc(OC(=O)c2c(C)cc(OC(=O)c3c(C)cc(O)cc3O)cc2O)cc(O)c1C(=O)O
7. COc1ccc(/C=C/C(=O)c2sc(NC(=S)NC(=O)c3ccc(Cl)cc3)nc2C)cc1OC

1: > 10 µM (inactive); 2: > 100 µM (inactive); 3: > 100 µM (inactive); 4: 24.1 µM (inactive); 5: > 100 µM (inactive); 6: > 100 µM (inactive); 7: 33.5 µM (inactive)

Give measured GI50 for every item shown.
1. CC1SC2=NC3=C(c4ccccc4C3=O)C(c3ccccc3Cl)N2C1=O (stereo not given)
2. CN(C)c1ccc(/C=N/NC2=N/C(=C\c3ccco3)C(=O)N2)cc1

1. 85.7 µM (inactive)
2. > 100 µM (inactive)

Provide reported GI50 for each item, in the same order as listed.
1. COC(O)C(=O)c1c2c(cc3c1CC1(Cc4cc5c(cc4C1)CCC5)C3)CCC2 (stereo not given)
2. C=C=C(Sc1ccccc1)C(C)(C)OC(C)=O

1. 16.4 µM (inactive)
2. 17.2 µM (inactive)

---

Tested on: NCI-H226
Assay: NCI tumour cell line growth inhibition, 48 h
The source made the active and inactive calls. Cut-off read from the data, not from the text of the source: active = GI50 up to about 1.1 µM and inactive = higher.
Measured Property: GI50

Below is a list of molecules. For each, state its recorded GI50.
1. C[Si](C)(c1ccc(C(=O)O)cc1)c1ccc(C(=O)O)cc1
2. O=S1(=O)c2ccccc2NC(c2ccc3ccccc3c2)CC1c1ccccc1F (stereo not given)
3. CN(N=O)c1nc2c(C(N)=O)ncn2s1
4. COc1ccc(/C=C2\C(=O)N(C)C(=O)c3cc(OC)c(OC)cc32)cc1OC
5. C=C1C(=O)O[C@@H]2/C=C(/C)[C@@H](OC(C)=O)C/C=C(\C)C(O)[C@@H](OC(=O)/C(C)=C\C)C12 (stereo not given in full)

> 100 µM (inactive)
> 100 µM (inactive)
> 100 µM (inactive)
12.9 µM (inactive)
> 100 µM (inactive)

---

Test system: A549
Experiment: NCI tumour cell line growth inhibition, 48 h
Activity calls are given as the source filed them. Rule as the data show it: active = GI50 up to about 1.1 µM and inactive = higher.
Measured Property: GI50

{"Molecule": "CCOC(=O)c1cc2c(C(=O)c3ccc([N+](=O)[O-])cc3)c(C(C)=O)ccc2[nH]1", "Measured Property": "GI50", "Value Measured": "39.4 µM (inactive)"}
{"Molecule": "O=c1c2ccccc2nc2n1C(c1ccc([N+](=O)[O-])cc1)C2(c1ccccc1)c1ccccc1 (stereo not given)", "Measured Property": "GI50", "Value Measured": "12.9 µM (inactive)"}
{"Molecule": "Nc1ccc(Oc2ccc(C34CC5CC6C3CC3CC4C(C5)C6(c4ccc(Oc5ccc(N)c(O)c5)cc4)C3)cc2)cc1O", "Measured Property": "GI50", "Value Measured": "1.9 µM (inactive)"}

Hi! Can you tell me GI50 for each of these molecules?
1. NC(CP(=O)(O)O)C(=O)O (stereo not given)
2. O=C1NC(O)n2c(=O)[nH]c(=O)n21 (stereo not given)

1: > 100 µM (inactive); 2: > 100 µM (inactive)
